- Test name: Oral bioavailability at a dose of 2.0 mg/kg
- Assay type: ADME, organism-based
- Run conditions: eutheria, in vivo
Observable: bioavailability (%)
The reply should be a number in %, with the unit left off.

The recorded bioavailability for entry COc1ccc(-c2cc(-c3nc(C)cs3)c(=O)n(C)c2-c2ccncc2)cc1 equals 25

====

- Test name: Clp at a dose of 2.0 mg/kg
- Assay type: ADME, organism-based
- Set-up: dose 2 mg/kg
- Run conditions: in vivo
Observable: Clp (mL/min/kg)
# unit: mL/min/kg | format: bare number

The recorded Clp for COc1ccc(-c2cc(-c3nc(C)cs3)c(=O)n(C)c2-c2ccncc2)cc1 is 44
